- TARGET_OR_TEST_SYSTEM: hTLR9 (Homo sapiens)
- Sequence (Q9NR96 26-1032): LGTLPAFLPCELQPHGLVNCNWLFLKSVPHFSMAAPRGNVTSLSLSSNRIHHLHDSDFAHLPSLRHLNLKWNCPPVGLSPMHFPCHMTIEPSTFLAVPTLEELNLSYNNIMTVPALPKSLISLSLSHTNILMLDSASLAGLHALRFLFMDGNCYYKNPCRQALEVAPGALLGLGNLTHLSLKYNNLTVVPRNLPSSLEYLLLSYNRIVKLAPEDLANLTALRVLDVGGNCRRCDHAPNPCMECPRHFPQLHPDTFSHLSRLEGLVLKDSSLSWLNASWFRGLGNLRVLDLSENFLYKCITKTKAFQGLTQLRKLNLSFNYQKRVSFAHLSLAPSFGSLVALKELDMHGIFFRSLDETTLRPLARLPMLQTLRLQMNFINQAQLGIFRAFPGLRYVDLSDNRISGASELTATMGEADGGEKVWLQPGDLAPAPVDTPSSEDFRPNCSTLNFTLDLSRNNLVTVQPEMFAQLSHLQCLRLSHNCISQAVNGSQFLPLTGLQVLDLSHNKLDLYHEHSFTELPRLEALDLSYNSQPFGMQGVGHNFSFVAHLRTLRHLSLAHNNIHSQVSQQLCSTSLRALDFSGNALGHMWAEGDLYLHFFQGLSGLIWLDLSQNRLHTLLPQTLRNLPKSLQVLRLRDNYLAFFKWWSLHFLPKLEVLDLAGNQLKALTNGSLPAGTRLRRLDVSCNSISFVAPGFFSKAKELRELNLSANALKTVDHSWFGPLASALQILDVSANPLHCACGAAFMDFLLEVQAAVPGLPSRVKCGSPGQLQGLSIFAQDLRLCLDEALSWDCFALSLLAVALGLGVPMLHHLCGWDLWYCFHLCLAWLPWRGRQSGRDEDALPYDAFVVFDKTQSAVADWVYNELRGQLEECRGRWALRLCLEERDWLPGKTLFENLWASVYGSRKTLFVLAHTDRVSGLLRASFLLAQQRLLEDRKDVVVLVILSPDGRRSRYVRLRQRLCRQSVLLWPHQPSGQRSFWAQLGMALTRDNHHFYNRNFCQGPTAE
- ASSAY_OVERVIEW: HEK293-Blue-hTLR-9 cells assay (SEAP reporter, ODN2006 stimulation)
- Assay type: cell-based
- Set-up: host or cells: HEK293 (HEK-Blue)
- STATED_CONDITIONS: HEK293-Blue-hTLR9 cells, ODN2006, 20 hrs; read-out: HEK/hTLR9 IC50

COMPOUND	IC50 [nM]
C[C@@H]1CN(c2ccc(C#N)c3ncccc23)C[C@H](CN2CC3(C2)CN(c2ccc4c(n2)CCNC4)CCO3)O1	48
C[C@@H]1CN(c2ccc(C#N)c3ncccc23)C[C@H](CN2CCN(c3ncc4c(n3)CCNC4)CC2)O1	122
C[C@@H]1CN(c2ccc(C#N)c3ncccc23)C[C@H](CN2CCN(c3ccc4c(n3)CNCC4)CC2)O1	83
C[C@@H]1CN(c2ccc(C#N)c3ncccc23)C[C@H](CN2CCN(c3ccc4c(c3)CNC4)C(CO)C2)O1 (stereo partly shown)	109
